- System: TNF-α
- protocol: In vitro EpiDerm skin model, PMA irritant: TNF-α release
- Format: cell-based
- test_context: EpiDerm skin model, + PMA irritant
Given measured TNFα + PMA, output TRUE if it is greater than or equal to 10 pg/mL and FALSE if not.

INSERT INTO results (molecule, class_assignment) VALUES
  ('C[C@]12CCC(=O)C=C1CC[C@@H]1[C@@H]2[C@@H](O)C[C@@]2(C)[C@H]1CC[C@]2(O)C(=O)CO [Positive control (hydrocortisone)]', 'FALSE'),
  ('CC1(C)[C@@H](O[C@H]2O[C@H](C(=O)[O-])[C@@H](O)[C@H](O)[C@H]2O[C@@H]2O[C@H](C(=O)[O-])[C@@H](O)[C@H](O)[C@H]2O)CC[C@]2(C)[C@H]3C(=O)C=C4[C@@H]5C[C@@](C)(C(=O)O)CC[C@]5(C)CC[C@@]4(C)[C@]3(C)CC[C@@H]12.[K+].[K+] [Dipotassium glycyrrhizinate (GLYR)]', 'TRUE'),
  ('NC(=O)c1cccnc1 [Nicotinamide (NA)]', 'TRUE'),
  ('O=C(O)c1ccccc1O [Salicylic acid (SCA)]', 'TRUE'),
  ('CC(O)C(=O)[O-].[Na+] (centres unmarked) [Sodium Lactate (SLA)]', 'TRUE');

---

Recorded measurements of IL-8 no PMA, one per entry
- Tested on: IL-8
- protocol: In vitro EpiDerm skin model, PMA irritant: IL-8 release
- Assay type: cell-based
- test_context: no PMA irritant (first IL-8 column, c6)
quantity_measured: IL-8 no PMA (pg/mL)

INSERT INTO results (compound, measured_target, quantity_measured, reported_value) VALUES
  ('O=C(O)c1ccccc1O [Salicylic acid (SCA)]', 'IL-8', 'IL-8 no PMA', 72.757),
  ('CC(O)C(=O)[O-].[Na+] (stereo not shown) [Sodium Lactate (SLA)]', 'IL-8', 'IL-8 no PMA', 104.549),
  ('CC1(C)[C@@H](O[C@H]2O[C@H](C(=O)[O-])[C@@H](O)[C@H](O)[C@H]2O[C@@H]2O[C@H](C(=O)[O-])[C@@H](O)[C@H](O)[C@H]2O)CC[C@]2(C)[C@H]3C(=O)C=C4[C@@H]5C[C@@](C)(C(=O)O)CC[C@]5(C)CC[C@@]4(C)[C@]3(C)CC[C@@H]12.[K+].[K+] [Dipotassium glycyrrhizinate (GLYR)]', 'IL-8', 'IL-8 no PMA', 44.413),
  ('NC(=O)c1cccnc1 [Nicotinamide (NA)]', 'IL-8', 'IL-8 no PMA', 47.54);

---

- Test system: EpiDerm skin model
- protocol: MTT viability, EpiDerm skin model
- Type: cell-based
Recorded measurements of MTT < 95%, one per entry
quantity_measured: MTT < 95% (%)

INSERT INTO measurements (compound, reported_value) VALUES
  ('NC(=O)c1cccnc1 [Nicotinamide (NA)]', 96.8),
  ('CC1(C)[C@@H](O[C@H]2O[C@H](C(=O)[O-])[C@@H](O)[C@H](O)[C@H]2O[C@@H]2O[C@H](C(=O)[O-])[C@@H](O)[C@H](O)[C@H]2O)CC[C@]2(C)[C@H]3C(=O)C=C4[C@@H]5C[C@@](C)(C(=O)O)CC[C@]5(C)CC[C@@]4(C)[C@]3(C)CC[C@@H]12.[K+].[K+] [Dipotassium glycyrrhizinate (GLYR)]', 93.7),
  ('CC(O)C(=O)[O-].[Na+] (stereo not shown) [Sodium Lactate (SLA)]', 99.1),
  ('O=C(O)c1ccccc1O [Salicylic acid (SCA)]', 103.2);

Just for reference, patent US11135457B2 is where these values come from.
